Provenance of the data: paper PMC8151276

target: AVPR1B (Homo sapiens, UniProt P47901); construct: purchased Promega (in-house HiBiT-GPCR construct library, NanoBRET); assay: NanoBRET screen HiBiT-AVPR1B in HEK293; format: binding; conditions: AVPR1B; tracer 0.1μM
Sequence (P47901 whole entry): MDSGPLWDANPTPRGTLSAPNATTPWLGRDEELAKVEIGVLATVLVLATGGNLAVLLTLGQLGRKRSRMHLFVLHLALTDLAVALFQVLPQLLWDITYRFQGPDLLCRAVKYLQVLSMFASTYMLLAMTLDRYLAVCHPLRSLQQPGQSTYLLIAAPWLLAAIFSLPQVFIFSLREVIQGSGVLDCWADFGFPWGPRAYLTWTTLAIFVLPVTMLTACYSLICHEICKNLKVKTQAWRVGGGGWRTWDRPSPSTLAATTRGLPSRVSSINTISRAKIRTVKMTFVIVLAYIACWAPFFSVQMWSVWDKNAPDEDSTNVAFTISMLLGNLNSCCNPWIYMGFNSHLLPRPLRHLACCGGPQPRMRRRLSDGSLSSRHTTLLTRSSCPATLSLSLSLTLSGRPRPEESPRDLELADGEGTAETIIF
readout_name: NanoBRET Fold Response
Hey, just send me the number, nothing else.

# get_value(readout='NanoBRET Fold Response', item= O=C(CCOCCOCCOCCOCCNC(=O)CCc1ccc2n1[B-](F)(F)[N+]1=C(c3ccc[nH]3)C=CC1=C2)NCCCN1CCN(C2=Nc3ccccc3Oc3ccc(Cl)cc32)CC1 [Loxapine-a-2-NB590] )
1.06

Entry CC(C)N(CC[C@H](c1ccccc1)c1cc(CCNC(=O)CCOCCOCCOCCOCCNC(=O)CCc2ccc3n2[B-](F)(F)[N+]2=C(c4ccc[nH]4)C=CC2=C3)ccc1O)C(C)C [Tolterodine-2-NB590] has what NanoBRET Fold Response?
1.42

Requested field: NanoBRET Fold Response. Item: O=C(CCc1ccc2n1[B-](F)(F)[N+]1=C(c3ccc[nH]3)C=CC1=C2)NCc1ccc(C(=O)NCCOCCC(=O)N[C@@H]2CC[C@@]3(O)[C@H]4Cc5ccc(O)c6c5[C@@]3(CCN4CC3CC3)[C@H]2O6)cc1 [Naltrexone-3-NB590]
1.19

Name the recorded NanoBRET Fold Response for Cc1cc2c(s1)Nc1ccccc1N=C2N1CCN(CCCNC(=O)CCOCCOCCOCCOCCNC(=O)CCc2ccc3n2[B-](F)(F)[N+]2=C(c4ccc[nH]4)C=CC2=C3)CC1 [Olanzapine-a-2-NB590] .
1.03

If you can, please state the reported NanoBRET Fold Response value of CCCn1c(=O)c2[nH]c(-c3ccc(OCC(=O)NCCNC(=O)CCOCCNC(=O)c4ccc(CNC(=O)CCc5ccc6n5[B-](F)(F)[N+]5=C(c7ccc[nH]7)C=CC5=C6)cc4)cc3)nc2n(CCC)c1=O [XAC-3-NB590] .
0.90
